# Test Name: qHTS assay for MDR1-selective chemotherapeutics: Primary screen using the drug-selected MDR subline cells KB-V1; also: nearly all actives have a fitted effect of over 60% in size
# Details: KB-V1 MDR cells viability, CellTiter-Glo, 72 h; series mostly up to 46.1 µM
The whole screen tested about 400,000 compounds, of which about 13,000 (3.2%) were called active. Roughly 18% stayed inconclusive and do not appear here. Calls follow the shape of the dose curve; as a rule, active = well fitted cell-killing curve with a large enough effect; inconclusive = small, poorly fitted or top-dose-only effect, or effect the other way; inactive = flat fitted curve, though single readings scatter. Shown is part of a subset that was picked to be rich in actives.
Outcome codes: TRUE = active, FALSE = inactive

Molecule: O=C(N/N=C\c1ccc(Br)cc1)c1ccc(Cn2cccn2)o1
Assigned Class: TRUE
--
Molecule: CCCN(Cc1cc2cccc(C)c2[nH]c1=O)S(C)(=O)=O
Assigned Class: FALSE
--
Molecule: O=C1c2ccccc2C(=O)N1CCCc1nc(-c2ccccc2)no1
Assigned Class: TRUE
--
Molecule: O=C(COC(=O)Cc1ccc(Cl)cc1Cl)NCc1ccco1
Assigned Class: FALSE
--
Molecule: COCCn1c(SCC(=O)c2cc(C)ccc2C)nc2cc(C(=O)NC3CCCC3)ccc2c1=O
Assigned Class: FALSE
--
Molecule: Cc1ccc(-c2nc3c(Cl)cc(C(F)(F)F)cn3c2Cc2cccc(Cl)c2)cc1
Assigned Class: FALSE
--
Molecule: COc1ccc(OCCNC(=O)c2cc(C3CC3)nc3c2cnn3C(C)C)cc1
Assigned Class: TRUE
--
Molecule: CC(NC(=O)Cn1cc(C(F)(F)F)cc(Cl)c1=O)c1ccccc1 (centres undefined)
Assigned Class: FALSE
--
Molecule: C=CCc1ccc(OCCOc2cccc(/C=N/n3cnnc3)c2)c(OC)c1
Assigned Class: FALSE
--
Molecule: O=C1O/C(=C\c2ccc(O)cc2)C(O)=C1c1ccc(O)cc1
Assigned Class: FALSE
--
Molecule: CCc1nc2ccc(C(=O)Nc3cccc(OC)c3)cn2c1N(CCC(C)C)CCN(C)C
Assigned Class: FALSE
--
Molecule: c1ccc(CCc2nc(-c3ccncc3)no2)cc1
Assigned Class: FALSE
--
Molecule: Cc1ccc(S(=O)(=O)c2nnn3c2nc(N2CCN(c4ccccc4F)CC2)c2cc(Cl)ccc23)cc1C
Assigned Class: FALSE
--
Molecule: COc1cccc(OCCOc2cccc(/C=N/n3cnnc3)c2)c1
Assigned Class: TRUE
--
Molecule: CCOC(=O)c1ccc(NC(=O)c2csc3c2CCCCC3)cc1
Assigned Class: FALSE
--
Molecule: Cc1ccc(C)c(NC(=O)CSc2nc3c(oc4ccccc43)c(=O)n2-c2ccccc2)c1
Assigned Class: TRUE
--
Molecule: CCOc1ccccc1N(CC)C(=O)Nc1cn(C)c(=O)c2ccccc12
Assigned Class: FALSE
--
Molecule: O=C(N/N=C/c1cccc(OCc2ccccc2)c1)c1ccc(Br)o1
Assigned Class: FALSE
--
Molecule: CN(C)c1ccc(/C=C/c2sc3ccccc3[n+]2C)cc1
Assigned Class: FALSE
--
Molecule: O=C(NC1CCCC1)C1c2ccccc2OCC(=O)N1CC(F)(F)F (centres undefined)
Assigned Class: FALSE
--
Molecule: Cc1cc2ccccc2n1CCNC(=O)c1ccc(F)cc1
Assigned Class: FALSE
--
Molecule: Nc1c(C(=O)NCc2ccccc2)nnn1Cc1cccc(Cl)c1
Assigned Class: TRUE
--
Molecule: Cc1cccc2cc(CN(Cc3cccs3)C(=S)NCc3ccco3)c(=O)[nH]c12
Assigned Class: TRUE
--
Molecule: Cc1ccc(C)c2[nH]c(=O)c(CN(Cc3cccnc3)C(=S)NCc3ccco3)cc12
Assigned Class: FALSE
--
Molecule: C=CCn1c(SCc2csc(C)n2)nc2scc(-c3ccc(C)o3)c2c1=O
Assigned Class: TRUE
--
Molecule: O=C1OCC2=C1C(c1ccc(Cl)cc1)c1cc3c(cc1O2)OCO3 (centres undefined)
Assigned Class: TRUE
--
Molecule: N#Cc1ccc(C(C(=O)NCc2ccccc2)n2c(=O)c(-c3ccco3)nc3ccccc32)cc1 (centres undefined)
Assigned Class: FALSE
--
Molecule: CCc1nc2c(OCCOc3ccccc3)cccn2c1N(C)C(=O)c1cccs1
Assigned Class: FALSE
--
Molecule: C=CCNC(=O)CSc1nc2scc(-c3ccco3)c2c(=O)n1CC=C
Assigned Class: FALSE
--
Molecule: CC(C)n1ncc2c(C(=O)Nc3ccc(CC#N)cc3)cc(C3CC3)nc21
Assigned Class: FALSE
--
Molecule: CCc1cc2c(NC3CCCC3)ncnc2s1
Assigned Class: FALSE
--
Molecule: CNc1cnc(-c2cc(OC)c(OC)c(OC)c2)cn1
Assigned Class: FALSE
--
Molecule: CC(C)n1ncc2c(C(=O)NCc3ccccc3CN(C)C)cc(C3CC3)nc21
Assigned Class: FALSE
--
Molecule: C[C@@H]1CN([C@H](C)CO)C(=O)CCCn2nncc2CO[C@@H]1CN(C)S(=O)(=O)c1cccc(C#N)c1
Assigned Class: FALSE
--
Molecule: O=C1NC(c2cc3c(cc2Cl)OCO3)Oc2ccccc21 (centres undefined)
Assigned Class: FALSE
--
Molecule: COc1ccc(-n2c(SCC(N)=O)nc3c(oc4ccccc43)c2=O)cc1
Assigned Class: FALSE
--
Molecule: COc1cc(-c2c(-c3ccc4c(c3)OCO4)noc2C)ccc1F
Assigned Class: TRUE
--
Molecule: CN1OC[C@@H]2CN(C(=O)c3cccc4ccccc34)[C@H](c3ccc(N4CCCCC4)cc3)C[C@@H]21
Assigned Class: FALSE
--
Molecule: Cc1ccccc1Nc1nnc(SCC(=O)c2cc3ccccc3o2)s1
Assigned Class: FALSE
--
Molecule: O=C1c2ccccc2C(=O)N1CCCCCCN1C(=O)c2ccccc2C1=O
Assigned Class: FALSE
--
Molecule: COC(=O)c1sccc1NC(=O)c1csc2c1CCCC2
Assigned Class: TRUE
--
Molecule: COCCNCCOCCOc1cccc(OC)c1
Assigned Class: FALSE
--
Molecule: CN(C)c1ccc(/C=N/NC(=O)c2ccc(Cn3cc(Br)cn3)o2)cc1
Assigned Class: FALSE
--
Molecule: CCc1nc2c(OCc3ccccc3)cccn2c1N(C)C(=O)c1ccco1
Assigned Class: FALSE
